test system: PRMT1 (protein arginine N-methyltransferase 1); test: PRMT1 binders on small-molecule microarrays, primary screen, biochemical, small-molecule microarray, 635 nm fluorescence (AID 1088); details: small-molecule microarray binding, higher = more signal;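 also: binding of Prmt1 protein to compounds spotted on small-molecule microarray slides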
Recorded measurements of composite z-score, one per entry
No unit in the answer, only the number.

| molecule | target_entity | endpoint_name | measured |
| --- | --- | --- | --- |
| CCCCC(O)C1C=CC2C(=O)N(c3ccccc3)C(=O)C2N1Nc1ccc(C(C)C)cc1 (centres undefined) | PRMT1 (protein arginine N-methyltransferase 1) | composite z-score | 1.37 |
| O=C1N(Cc2ccccc2)c2ccccc2[C@@H]2OC(c3ccc(OCCCO)cc3)=N[C@]12Cc1ccccc1 | PRMT1 (protein arginine N-methyltransferase 1) | composite z-score | 1.38 |
| [N-]=[N+]=NCc1ccccc1[C@H]1OC(c2ccc(OCCCO)cc2)=N[C@@]1(CCS(=O)(=O)c1ccccc1)C(=O)N1CCCCC1 | PRMT1 (protein arginine N-methyltransferase 1) | composite z-score | 1.55 |
| COc1ccc([Si](C)(C)[C@@H]2[C@@H](CC(=O)N3Cc4ccccc4C[C@H]3CO)O[C@]3(C(=O)N(Cc4cccc(N5C(=O)c6cccc7cccc5c67)c4)c4ccccc43)[C@H]2C)cc1 | PRMT1 (protein arginine N-methyltransferase 1) | composite z-score | 1.56 |

Please indicate composite z-score recorded for C#CCN([C@@H](Cc1ccc(O)cc1)C(=O)OC)[C@@H](/C=C/C1CC1)[C@H](O)Cc1ccccc1
0.0371

Quickly give me recorded composite z-score for CC(CO)N1C(=O)[C@@H]2[C@H]3C(=O)OCC=C[C@H]3OC23C=CCN(C(C)(C)C)C(=O)[C@@H]13 (some centres undefined)
-0.507

Using the record for COCCOC(=O)N1C(=O)[C@@]2(c3cc(C#Cc4ccc(OC)cc4)ccc31)[C@H](C(=O)Nc1nc3ccccc3s1)[C@H]1C(=O)O[C@H](c3ccccc3)[C@H](c3ccccc3)N1[C@@H]2c1ccc(O)cc1 , state its measured composite z-score.
1.55

Read off the recorded composite z-score for C[C@]1(C(=O)NC2CC2)c2ccccc2C(=O)N(Cc2ccccc2)[C@H]1c1ccc(CO)cc1
-1.09

Name the recorded composite z-score of the molecule listed here: CN1C(=O)C2C=CC(C(O)c3ccc(F)cc3)N(Nc3ccccc3)C2C1=O (centres undefined)
0.225

Entry N#Cc1ccc(C(O)C2C=CC3C(=O)N(c4ccccc4)C(=O)C3N2Nc2ccccc2)cc1 (centres undefined) needs its composite z-score filled in; supply it.
0.0016

Identify measured composite z-score corresponding to C=CCOC(=O)[C@H]1[C@@H]2C(=O)O[C@@H](c3ccccc3)[C@@H](c3ccccc3)N2[C@@H](c2ccc(OCCOC(=O)[C@@H]3C[C@@H]4C(=O)N[C@@H](CCCCN(C)C)C(=O)N4[C@@H]3c3ccc(O)cc3)cc2)[C@]12C(=O)Nc1ccccc12
1.55
